# System: SNB-75
# assay.method.text: NCI tumour cell line growth inhibition, 48 h
Activity calls are given as the source filed them. Rule as the data show it: active = GI50 up to about 1.1 µM and inactive = higher. Non-standard residues stand in square brackets, D forms with d. Residues, ends and D or L forms follow the SMILES beside them. ξ: configuration not given here. *: point of attachment. NMeF = CN[C@@H](Cc1ccccc1)C(=O)O; NMeV = CN[C@H](C(=O)O)C(C)C; ξNMeV = CNC(C(=O)O)C(C)C; Boc = CC(C)(C)OC(=O)*; OBn = c1ccc(CO*)cc1
Possible outcomes: yes (active), no (inactive)

compound	class.assignment
COc1ccc(Cc2c(N)[nH]c(=O)n(C)c2=O)cc1	no
CC(=O)OCC1OC(c2c(OC(C)=O)cc(C)c3c(=O)cc(/C(C(C)=O)=C(\C)O)oc23)C(OC(C)=O)C(OC(C)=O)C1OC(C)=O (configuration not stated)	no
CC(CN(C)C)C(C#N)(c1ccccc1)c1ccccc1 (configuration not stated)	no
CC1(C)OP(=O)(c2ccccc2)C=C1Br (configuration not stated)	no
Cc1ccc(-c2nc(C)c(C(=O)Nc3ccc(Cl)cc3)s2)cc1	no
COc1ccc(/C=C2\CCC(CN(C)C)C2=O)cc1 (configuration not stated)	no
Oc1ccc(Br)cc1/C=N/c1c(NC2CCCCC2)oc2ccc(Br)cc12	no
Cc1cc2oc(=N)c(C#N)c(C)c2cc1C	no
O=[N+]([O-])C(=C(N1CCCCC1)N1CCCCC1)/C(Cl)=C(\Cl)Br	no
O=C1c2cc([N+](=O)[O-])cnc2S(=O)(=O)N1c1ccc(Oc2ccccc2)cc1	no
COc1ccc2ccnc(Cc3ccc(OCc4ccccc4)c(OC)c3)c2c1	no
CNC(=O)N(CCC#N)CCCN(C(=O)NC)c1ccccc1	no
O1C2C1C1OC1C1OC1C1OC21 (configuration not stated)	no
COC(=O)C1OC(O[C@H]2CC[C@]3(C)[C@H]4CC=C5[C@@H]6CC(C)(C)CC[C@]6(C(=O)OC)[C@H](O)C[C@@]5(C)[C@]4(C)CC[C@H]3C2(C)C)C(O)C(O)C1O (some centres not stated)	no
C/C(=C\c1csc(C)n1)[C@@H]1C[C@@H]2O[C@@H]2CCC[C@H](C)[C@H](O)[C@@H](C)C(=O)C(C)(C)[C@@H](O)CC(=O)O1	yes
O=C1CC(n2cccc2)c2c(Br)sc(Br)c21 (configuration not stated)	no
C=CCNC1=C2C[C@@H](C)C[C@@H](OC)[C@H](OC(=O)CN(C)C)[C@H](C)/C=C(\C)[C@@H](OC(N)=O)[C@H](OC)/C=C\C=C(/C)C(=O)NC(=CC1=O)C2=O	yes
O=C(Nc1ccccc1-c1nc2ccccc2[nH]c1=O)c1ccccc1	no
CC(=O)NCCc1c(-c2[nH]c3ccccc3c2CCNC(C)=O)[nH]c2ccccc12	no
CN1CN(c2ccccc2)C2(CCN(CCC3COc4ccccc4O3)CC2)C1=O (configuration not stated)	no
CS(=O)(=O)OCCN1CCN(C(=O)c2ccc(Cl)c3c(Nc4ccc(S(=O)(=O)N=C(N)N)cc4)c4ccccc4nc23)CC1	no
Oc1ccc(C[C@@H]2CN[C@H](Cc3ccc(O)c(Br)c3)CN2)cc1	no
COC(=O)/C(=N\O)C(C(=O)C=C(C)C)C(=O)C(=O)Nc1ccccc1C (configuration not stated)	no
NC1C/C(=N\O)c2c(I)sc(I)c21 (configuration not stated)	no
O=C1c2ccccc2C(=O)c2c(O)c(O)cc(O)c21	no
CC1(C)CN=C(Nc2cccc(C(F)(F)F)c2)S1	no
CC(C)C(C(=O)N(C)[C@H](C(=O)N1CCC[C@H]1C(=O)N(C)[C@@H](Cc1ccccc1)C(=O)OCc1ccccc1)C(C)C)N(C)C(=O)[C@@H](NC(=O)OC(C)(C)C)C(C)C (some centres not stated) (Boc-V[ξNMeV][NMeV]P[NMeF]-OBn)	no
Cc1nc2c(sc3nc4c(cc32)CCC4)c(=O)o1	no
C[Si](C)(OCCS(=O)(=O)O)OC(=C1S(=O)(=O)OCCOS1(=O)=O)c1cccc2ccccc12	no
NC1c2c(Cl)sc(Cl)c2C(=O)C1O (configuration not stated)	no
CC1=C(Br)C(=O)C(C)=C(Br)C1=O.Cc1c(O)c(Br)c(C)c(O)c1Br	no
O=C1C=C(Nc2nc(O)cc(C(=O)O)n2)c2ccccc2C1=O	no
CC(N1CCOCC1)C(O)(c1ccccc1)c1ccccn1 (configuration not stated)	no
COc1ccc(P2(=S)SP(=S)(c3ccc(Cl)cc3)S2)cc1 (configuration not stated)	no
CN(C)c1ccc(/C=N\N2C(=O)c3ccccc3C2=O)cc1	no
O=C1N/C(=N\C2CCCCC2)C2(CCN(CCCC3(c4ccc(F)cc4)OCCO3)CC2)N1c1ccccc1	no
COC(=O)[C@H](Cc1ccccc1)NC(=O)N(CCC#N)CCN(C(=O)N[C@@H](Cc1ccccc1)C(=O)OC)c1ccccc1	no
